- measurement target: Serotonin 1 receptors; 5-HT1B & 5-HT1D (Homo sapiens) (UniProt P28222+P28221)
- experiment: Ratio of 5-hydroxytryptamine 1B receptor to that of 5-hydroxytryptamine 1D receptor was determined
- Assay type: protein assay
Entries annotated with measured Selectivity
Please respond with just the number, no unit label.

Cc1cc(C(C)(C)C)cc(C)c1NC1=NCCN1: 40
Cc1cc([N+](=O)[O-])cc(C)c1NC1=NCCN1: 30
Cc1cc(Br)cc(C)c1N=C1NCCN1: 26
Cc1cc(Br)cc(C)c1CC1=NCCN1: 20

I am curious: what Selectivity value has been reported for `Clc1cc(I)cc(Cl)c1N=C1NCCN1` ?
40
